Below: a set of entries, each annotated with reported reactivity (MFI of chimeric receptor/MFI of wild type CXCR4 x 100%).
# Measured On: 2442 CXCR2/CXCR4 chimera
# Experiment Notes: flow cytometry, scFv-Fc on transfected 293T cells, FITC anti-human IgG
Number in %, nothing else.

20-Fc (Fc fusion, part only; not given: linker and human IgG1 hinge-Fc, not shown: another chain or arm of the molecule; a dimerising Fc or GST; small tags and cut ends) VH: EVQLVQSGGGLVQPGGSLRLSCAASGFTFSSYAMSWVRQAPGKGLEWVANIKQDGSEKYYVDSVKGRFTISRDNAKNSLYLQMNSLRAEDTAVYYCARDQVSGITIFGGKWRSPDVWGQGTTVTVSS VL: SSELTQDPAVSVALGQTVRITCQGDSLRSYYASWYQQKPGQAPVLVIYGKNNRPSGIPDRFSGSKSHNTAYLTITGAQAEDEADYFCNSRSGSQRVFGGGTKLTVL	7.6
2N-Fc (Fc fusion, part only; not given: linker and human IgG1 hinge-Fc, not shown: another chain or arm of the molecule; a dimerising Fc or GST; small tags and cut ends) VH: EVQLVESGGGVVQPGRSLRLSCAASGFTFSSYGMHWVRQAPGKGLEWVAVISYDGSNKYYADSVKGRFTISRDNSKNTLYLQVSSLRAEDTAVYYCVRDLVAAAGTAFDIWGQGTTVTVSS VL: QPVLTQPRSVSGSPGQSVTISCTGTISDVGGHNFVSWYQQNPGKAPKLIIFEVTKRPAGVPDRFSGSKSGNTASLTVSGLQAEDEGEYYCSSYGGSNDVIFGGGTKLSVL	4.5

Read the next record carefully.
Item: 6R-Fc (Fc fusion, part only; not given: VH-VL linker, hinge and IgG1 Fc, not shown: another chain or arm of the molecule; a dimerising Fc or GST; small tags and cut ends) VH: QVQLQQSGPGLVKPSQTLSLTCAVSGDSVSSNFVAWNWIRQSPSRGLEWLGRTYYRSRWYNDYAVSVQSRIRVTPDTSKNQFSLHLDSVTPEDTAVYYCARGQHSGFDFWGQGTLVTVSS VL: QSVLTQPPSVSKGLRQTATLTCTGNSNNVGNQGAAWLQQHQGHPPKLLSYRNNNRPSGISERFSASRSGNTASLTITGLQPEDEADYYCSAWDNRLKTYVFGTGGKVTVL | reactivity (MFI of chimeric receptor/MFI of wild type CXCR4 x 100%): 3.7

Source of measurements: patent US20110250165A1
